# Tested on: TMD5
# assaySummary: selective drug sensitivity score (sDSS, relative to normal bone marrow) (sDSS (score)); higher = more potent and effective on the cell line relative to normal bone marrow cells;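 also: ALL cell lines in 384-well plates, five doses spanning 10,000-fold, each plate scaled between vehicle and 100 µmol/L benzalkonium chloride controls, sDSS an adapted area-under-curve metric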
# conditionsUsed: 72 h
Please go through the items and note down their selective drug sensitivity score.
Answers are plain numbers.

Nc1nc(Cl)nc2c1ncn2[C@H]1C[C@H](O)[C@@H](CO)O1 [Cladribine] (top concentration 1000 nM) :: -16
O=C(c1cccc(Cl)c1F)N1CCN(Cc2cccc(Nc3nccs3)n2)CC1 [MK-8745] (top concentration 10000 nM) :: 9.4
CC(=O)[C@]1(O)Cc2c(O)c3c(c(O)c2[C@@H](O[C@H]2C[C@H](N)[C@H](O)[C@H](C)O2)C1)C(=O)c1ccccc1C3=O [Idarubicin] (top concentration 1000 nM) :: 1.94

Need selective drug sensitivity score of CNC(=O)c1ccccc1Nc1cc(Nc2ccc(N3CCOCC3)cc2OC)ncc1C(F)(F)F [VS-4718] (top concentration 10000 nM) , thanks.
6.8

###

# Tested on: RPMI-8402
# assaySummary: selective drug sensitivity score (sDSS, relative to normal bone marrow) (sDSS (score)); higher = more potent and effective on the cell line relative to normal bone marrow cells
# conditionsUsed: 72 h
Our labelling divides records by selective drug sensitivity score into ranges: bottom range = under -0.7, center range = from -0.7 up to 5, top range = 5 and over

Exercise: read the entry COc1cc2c(cc1OC(C)C)[C@H](c1ccc(Cl)cc1)N(c1ccc(N(C)C[C@H]3CC[C@H](N4CCN(C)C(=O)C4)CC3)cc1)C(=O)C2 [NVP-CGM097] (top concentration 25000 nM) and state which class it falls under.
bottom range

Next up: Cc1cn(-c2cc(NC(=O)c3ccc(C)c(Nc4nccc(-c5cccnc5)n4)c3)cc(C(F)(F)F)c2)cn1 [Nilotinib] (top concentration 10000 nM)
center range

Next up: C=CCn1c(=O)c2cnc(Nc3ccc(N4CCN(C)CC4)cc3)nc2n1-c1cccc(C(C)(C)O)n1 [AZD1775] (top concentration 10000 nM)
top range

Next up: NS(=O)(=O)NCCNc1nonc1/C(=N/O)Nc1ccc(F)c(Br)c1 [Epacadostat] (top concentration 10000 nM)
center range

Next up: COC(=O)c1ccc2c(c1)[nH]c1ncnc(NCCCN3CCCCC3)c12 [UM729] (top concentration 10000 nM)
center range

Next up: O=C(c1ccc(F)c(F)c1Nc1ccc(I)cc1F)N1CC(O)([C@@H]2CCCCN2)C1 [Cobimetinib] (top concentration 1000 nM)
bottom range

Next up: CC(=O)[C@]1(O)Cc2c(O)c3c(c(O)c2[C@@H](O[C@H]2C[C@H](N)[C@H](O)[C@H](C)O2)C1)C(=O)c1ccccc1C3=O [Idarubicin] (top concentration 1000 nM)
top range

Next up: COc1cc2nccc(Oc3ccc(NC(=O)C4(C(=O)Nc5ccc(F)cc5)CC4)cc3)c2cc1OC [Cabozantinib] (top concentration 1000 nM)
bottom range

Next up: Nc1nccc(-c2c(-c3ccc(F)cc3)ncn2C2CCCCC2)n1 (top concentration 10000 nM)
center range

Next up: CC[C@@H]1C(=O)N(C)c2cnc(Nc3ccc(C(=O)N[C@H]4CC[C@H](N5CCN(CC6CC6)CC5)CC4)cc3OC)nc2N1C(C)C [Volasertib] (top concentration 1000 nM)
top range

Next up: COc1cc2c(NC3CCN(C(C)C)CC3)nc(N3CCC(F)(F)CC3)nc2cc1OCCCN1CCCC1 [UNC0642] (top concentration 10000 nM)
bottom range

###

# System: TMD5
# assaySummary: selective drug sensitivity score (sDSS, relative to normal bone marrow) (sDSS (score)); higher = more potent and effective on the cell line relative to normal bone marrow cells
# conditionsUsed: 72 h
testReadout: selective drug sensitivity score
Answers are plain numbers.

Consider the reported selective drug sensitivity score for these compounds:
CN(C)C(=N)NC(=N)N [Metformin] (top concentration 100000 nM) :: -0.02
CN1CCN(c2ccc3nc(-c4c(N)c5c(F)cccc5[nH]c4=O)[nH]c3c2)CC1 [Dovitinib] (top concentration 10000 nM) :: -0.14
FC(F)(F)c1ccc(/C=C/c2nc(COc3ccc(CCCCn4ccnn4)cc3)co2)cc1 [Mubritinib] (top concentration 1000 nM) :: 0.26
Cc1c(N)nc([C@H](CC(N)=O)NC[C@H](N)C(N)=O)nc1C(=O)N[C@H](C(=O)N[C@H](C)[C@@H](O)[C@H](C)C(=O)N[C@H](C(=O)NCCc1nc(-c2nc(C(=O)NCCC[S+](C)C)cs2)cs1)[C@@H](C)O)[C@@H](O[C@@H]1O[C@@H](CO)[C@@H](O)[C@H](O)[C@@H]1O[C@H]1O[C@H](CO)[C@@H](O)[C@H](OC(N)=O)[C@@H]1O)c1c[nH]cn1 [Bleomycin] (top concentration 10000 nM) :: 7.34
COc1ccc(C[C@H](NC(=O)[C@H](C)NC(=O)CN2CCOCC2)C(=O)N[C@@H](Cc2ccccc2)C(=O)[C@@]2(C)CO2)cc1 [ONX-0914] (top concentration 10000 nM) :: 0

API: the following record is the query input.
Form field - read-out: selective drug sensitivity score; system: TMD5; submitted item: Nc1nc2[nH]cnc2c(=S)[nH]1 [Thioguanine] (top concentration 10000 nM)
-3.46

###

# Test system: LC4-1
# assaySummary: selective drug sensitivity score (sDSS, relative to normal bone marrow) (sDSS (score)); higher = more potent and effective on the cell line relative to normal bone marrow cells
# conditionsUsed: 72 h
Entry flag: True if selective drug sensitivity score reaches 4; False if it does not.

Would you please look over these solved cases?
O=C(NC[C@H](O)CN1CCc2ccccc2C1)c1cc(NC2COC2)ncn1 (top concentration 10000 nM) :: False
CN(C)C(=O)c1cc2cnc(Nc3ccc(N4CCNCC4)cn3)nc2n1C1CCCC1 [Ribociclib] (top concentration 10000 nM) :: True
CCC/C=C/C=C/C(=O)O[C@H]1/C(=C/C(=O)OC)C[C@H]2C[C@H]([C@@H](C)O)OC(=O)C[C@H](O)C[C@@H]3C[C@H](OC(C)=O)C(C)(C)[C@](O)(C[C@@H]4C/C(=C/C(=O)OC)C[C@H](/C=C/C(C)(C)[C@]1(O)O2)O4)O3 [Bryostatin_1] (top concentration 100 nM) :: True

Threshold query (selective drug sensitivity score >= 4) on COc1cc2c(NC3CCN(C(C)C)CC3)nc(N3CCC(F)(F)CC3)nc2cc1OCCCN1CCCC1 [UNC0642] (top concentration 10000 nM)
False

Next up: COc1ncc(-c2ccc3nccc(-c4ccnnc4)c3c2)cc1NS(=O)(=O)c1ccc(F)cc1F [Omipalisib] (top concentration 1000 nM)
False

Next up: CO[C@H]1CC[C@H](N2C(=O)CNc3ncc(-c4ccc(C(C)(C)O)nc4)nc32)CC1 [CC-223] (top concentration 10000 nM)
False

Next up: CCc1cncnc1N1CCN(Cc2nc3cc(C(F)(F)F)ccc3[nH]2)CC1 (top concentration 10000 nM)
True

###

Please go through the items and note down their selective drug sensitivity score.
# Tested on: KASUMI-9
# assaySummary: selective drug sensitivity score (sDSS, relative to normal bone marrow) (sDSS (score)); higher = more potent and effective on the cell line relative to normal bone marrow cells
# conditionsUsed: 72 h
Numbers only.

Consider the reported selective drug sensitivity score for these compounds:
O=C(Nc1ccc(OC(F)(F)Cl)cc1)c1cnc(N2CC[C@@H](O)C2)c(-c2cc[nH]n2)c1 [Asciminib] (top concentration 1000 nM) :: -1.68
CO[C@@H](C(=O)N1Cc2[nH]nc(NC(=O)c3ccc(N4CCN(C)CC4)cc3)c2C1)c1ccccc1 [Danusertib] (top concentration 10000 nM) :: 15.5
Cc1sc2c(c1C)C(c1ccc(Cl)cc1)=N[C@@H](CC(=O)OC(C)(C)C)c1nnc(C)n1-2 [JQ1] (top concentration 10000 nM) :: 11.8

Would you be so kind as to report selective drug sensitivity score for each listed record?
1. CO[C@H]1CC[C@H](N2C(=O)CNc3ncc(-c4ccc(C(C)(C)O)nc4)nc32)CC1 [CC-223] (top concentration 10000 nM)
2. Cc1nn(C)c(COc2ccc(N3CCN(S(=O)(=O)N(C)C)CC3)cc2)c1-c1cccc2c(CCCOc3cccc4ccccc34)c(C(=O)O)n(CCN3CCOCC3)c12 (top concentration 50000 nM)
3. CCOC(=O)CCNc1cc(N2CCc3ccccc3CC2)nc(-c2ccccn2)n1 [GSK-J4] (top concentration 100000 nM)

1: 5.12; 2: 5.66; 3: -7.88

###

# Tested on: DND-41
# assaySummary: selective drug sensitivity score (sDSS, relative to normal bone marrow) (sDSS (score)); higher = more potent and effective on the cell line relative to normal bone marrow cells
# conditionsUsed: 72 h
Please go through the items and note down their selective drug sensitivity score.
Answers are plain numbers.

CO[C@@H](C)Cn1c(=O)n(C)c2cnc3ccc(-c4cncc(C(C)(C)O)c4)cc3c21 (top concentration 2500 nM) :: 3.18
Cc1nn(C)c(COc2ccc(N3CCN(S(=O)(=O)N(C)C)CC3)cc2)c1-c1cccc2c(CCCOc3cccc4ccccc34)c(C(=O)O)n(CCN3CCOCC3)c12 (top concentration 50000 nM) :: 4.56
COc1cc2ncnc(Oc3cccc(NC(=O)Nc4cc(C(C)(C)C(F)(F)F)on4)c3)c2cc1OC (top concentration 10000 nM) :: 0
NCCNc1ccc(NCCN)c2c1C(=O)c1ccncc1C2=O [Pixantrone] (top concentration 10000 nM) :: -1.76
C=CC(=O)Nc1cccc(Nc2nc(Nc3ccc(OCCOC)cc3)ncc2F)c1 [Spebrutinib] (top concentration 1000 nM) :: -0.16

Would you be so kind as to report selective drug sensitivity score for each listed record?
1. O=C(c1ccc(OCCN2CCCCC2)cc1)c1c(-c2ccc(O)cc2)sc2cc(O)ccc12 [Raloxifene] (top concentration 10000 nM)
2. C[C@]12C=CC(=O)C=C1CC[C@@H]1[C@@H]2[C@@H](O)C[C@@]2(C)[C@H]1CC[C@]2(O)C(=O)CO [Prednisolone] (top concentration 10000 nM)
3. CN1CCN(CCOc2cc(OC3CCOCC3)c3c(Nc4c(Cl)ccc5c4OCO5)ncnc3c2)CC1 [Saracatinib] (top concentration 10000 nM)
4. CC[C@]1(O)C[C@H]2CN(CCc3c([nH]c4ccccc34)[C@@](C(=O)OC)(c3cc4c(cc3OC)N(C=O)[C@H]3[C@@](O)(C(=O)OC)[C@H](OC(C)=O)[C@]5(CC)C=CCN6CC[C@]43[C@@H]65)C2)C1 [Vincristine] (top concentration 1000 nM)
5. Cc1c(N)nc([C@H](CC(N)=O)NC[C@H](N)C(N)=O)nc1C(=O)N[C@H](C(=O)N[C@H](C)[C@@H](O)[C@H](C)C(=O)N[C@H](C(=O)NCCc1nc(-c2nc(C(=O)NCCC[S+](C)C)cs2)cs1)[C@@H](C)O)[C@@H](O[C@@H]1O[C@@H](CO)[C@@H](O)[C@H](O)[C@@H]1O[C@H]1O[C@H](CO)[C@@H](O)[C@H](OC(N)=O)[C@@H]1O)c1c[nH]cn1 [Bleomycin] (top concentration 10000 nM)

1. 4.52
2. 29.4
3. 2.18
4. 2.02
5. 1.14
